I'd appreciate it if you marked entries Condition met when melting point is lower than 90 °C and Condition not met when it is not.

Some solved cases for reference:
compound	label
CC(C)c1ccc(Cl)cc1 [p-chlorocumene]	Condition met
O=C(O)C1COc2ccccc2O1 (stereo not given) [1,4-benzodioxane-2-carboxylic acid]	Condition not met
CCCCCNCCCCC [N-Pentylpentan-1-amine]	Condition met

[in] I'd appreciate it if you could check whether CCCC(C)=O [Pentan-2-one] has melting point smaller than 90 °C.
[out] Condition met

[in] Check if melting point falls below 90 °C for COc1ccc(C(=O)C=C(C)c2ccc(OC)cc2)cc1 [trans-4,4'-Dimethoxy-beta-methylchalcone] .
[out] Condition met

###

quantity kind: melting point

Some solved cases for reference:
compound	melting point
CC(C)[C@H](N)C(=O)O	315 °C
NC12CC3CC(CC(C3)C1)C2	180 °C
Oc1ccnc2ccc(C(F)(F)F)cc12 [4-hydroxy-6-(trifluoromethyl)quinoline]	267 °C

Shifting focus to the compound that follows.
Data point: COc1cc([C@@H]2c3cc4c(cc3[C@@H](O[C@@H]3O[C@@H]5CO[C@@H](C)O[C@H]5[C@H](O)[C@H]3O)[C@H]3COC(=O)[C@H]23)OCO4)cc(OC)c1O [Etoposide] ; melting point = 244 °C

###

Listed here: items and their measured melting point.
Give the value in °C but do not write °C after it.

Please review the entries below; each comes with its answer.
compound	melting point, °C
O=C(O)c1cccc(O)c1O [2,3-dihydroxybenzoic acid]	206
IC(I)I [Iodoform]	122
CC(=O)OC1CCC2(C)C3CCC4(C)C(=O)CCC4C3C(=O)CC2(C)C1 (centres undefined) [5-methyl-7,17-dioxoandrostan-3-yl acetate]	155
c1ccc([Si]2(c3ccccc3)O[Si](c3ccccc3)(c3ccccc3)O[Si](c3ccccc3)(c3ccccc3)O[Si](c3ccccc3)(c3ccccc3)O2)cc1	201
O=C[C@H](O)[C@H](O)[C@H](O)CO	82
N#Cc1ccc(N)cc1	85
O=C[C@H](O)[C@H](O)[C@@H](O)CO	110
O=C(O)c1cc(I)ccc1Cl	159

Item: CCCCc1ccc(C(N)=O)cc1 [4-n-butylbenzamide] | melting point: 128

###

Note to self: values exactly at 50 °C are T. So melting point at or above 50 °C is T, below is F.

Worked examples, 2 compounds total:
compound	label
CC(C)NC(C)C	F
N#Cc1ccc(Cl)cc1	T

[in] Is melting point for Nc1c(Br)cc(Br)cc1Br at or above 50 °C?
[out] T

[in] Can COC(=O)c1ccccc1N [methyl anthranilate] be said to have melting point at or above 50 °C?
[out] F

[in] Does the reported melting point for C1CC[C@H]2CCCC[C@H]2C1 [cis-Decahydronaphthalene] fall at or above the 50 °C mark?
[out] F

[in] Does the reported melting point for CC(=O)Oc1ccc(C(N)=O)cc1 [p-acetoxybenzamide] fall at or above the 50 °C mark?
[out] T

[in] In plain terms: is recorded melting point at least 50 °C for O=[N+]([O-])c1cc[n+]([O-])cc1 [4-nitropyridine n-oxide] ?
[out] T

[in] Threshold query (melting point >= 50 °C) on CC(=O)c1ccccc1[N+](=O)[O-]
[out] F

[in] Could you tell me if the measured melting point of CCCCCCCCCCCCCCO reaches 50 °C or more?
[out] F
